- Test system: nude mice, LX-1 lung xenograft intrarenal, tumor weight T/C
- run description: NCI In Vivo Anticancer Drug Screen. Data for tumor model Human Lung LX-1 Xenograft (intrarenal inoculation) in NU/NU Swiss (nude) mice
- setup conditions: endpoint: mean tumor weight change; dose: 800.0 mg/kg/injection; schedule: Q04DX003 (sc); vehicle: saline with Tween-80; higher = larger tumour
Results filed as inconclusive are left out.
quantity measured: T/C

compound	measurement
Nc1nc(-c2cccc3ccccc23)cc2ccccc12	53 % of control
CCc1ccc(C2=C(O)C(=O)C(c3ccc(CC)cc3)=C(O)C2=O)cc1	56 % of control
CCCCCCOC(CN(C)C)C(Cl)(Cl)Cl (stereo not drawn)	59 % of control
Cc1ccc(N)c(N)c1	57 % of control
CC(=O)Oc1ccc[nH]c1=O	91 % of control
COc1cc(C(C)(C)C)cc(OC)c1C(O)(c1c(OC)cc(C(C)(C)C)cc1OC)c1c(OC)cc(C(C)(C)C)cc1OC	86 % of control
CC1(C)COCN1COC1CCCCC1	110 % of control
O=C1NC(=O)C2C3C=CC(C12)C1C2C(=O)NC(=O)C2C31 (stereo not drawn)	75 % of control
CCCCOCN(COCCCC)C(C)Cc1ccccc1 (stereo not drawn)	121 % of control
C[C@]12CC[C@@H]3c4ccc(OC(=O)Cc5ccc(N(CCCl)CCCl)cc5)cc4CC[C@H]3[C@@H]1CC[C@@H]2OC(=O)Cc1ccc(N(CCCl)CCCl)cc1	116 % of control
Nc1nc2ccc(NCc3ccc(C(=O)NC(CCC(=O)O)C(=O)O)cc3)cc2c(=O)[nH]1 (stereo not drawn)	63 % of control
Cc1cc2cc3cc(C)c(N)cc3nc2cc1N	95 % of control
O=Cc1ccc(O)c(O)c1	73 % of control
O=C1[C@H]2CCC[C@H]2[C@H]2CCC[C@@H]12	120 % of control
CN=S(=O)(OCCCCCOS(=O)(=NC)c1ccccc1)c1ccccc1 (stereo not drawn)	57 % of control
COC1=C(OC)C(=O)C(Sc2ccc3ccccc3c2)=CC1=O	92 % of control
C/C=C/C=C1/OC(C)=C(C(C)=O)C1=O	92 % of control
C/C(=N\NC(N)=O)c1cccc(/C(C)=N/NC(N)=O)n1	89 % of control
